Assay: Pharmacokinetic testing in crab-eating macaques (cynomolgus monkey), IV and PO
Type: in vivo
Conditions: cynomolgus monkey, plasma, PO, 2 mg/kg vs IV 0.5 mg/kg
measure: bioavailability (%)

a: Cc1cc(-n2nc3c(c2-n2ccn(-c4ccc5c(cnn5C)c4F)c2=O)[C@H](C)N(C(=O)c2cc4cc([C@H]5CCOC(C)(C)C5)ccc4n2[C@@]2(c4noc(=O)[nH]4)[C@@H]4CN(c5ccccn5)C[C@@H]42)CC3)cc(C)c1F [Compound C-22]
b: Cc1cc(-n2nc3c(c2-n2ccn(-c4ccc5c(cnn5C)c4F)c2=O)[C@H](C)N(C(=O)c2cc4cc([C@H]5CCOC(C)(C)C5)ccc4n2[C@@]2(c4noc(=O)[nH]4)C[C@@H]2C)CC3)cc(C)c1F [Orforglipron, reference compound]
c: Cc1cc(-n2nc3c(c2-n2ccn(-c4ccc5c(cnn5C)c4F)c2=O)[C@H](C)N(C(=O)c2cc4cc([C@H]5CCOC(C)(C)C5)ccc4n2[C@@]2(c4noc(=O)[nH]4)[C@@H]4CN(c5ncccn5)C[C@@H]42)CC3)cc(C)c1F [Compound C-12]
Order the 3 compounds from highest to lowest bioavailability. The labels, placed in the requested order, form the answer.
c, a, b
(c: 24.5%, a: 11.9%, b: 6.3%)

---

Experiment: Pharmacokinetic testing in crab-eating macaques (cynomolgus monkey), IV and PO
Format: in vivo
Conditions: cynomolgus monkey, PO, 2 mg/kg, plasma
measure: Cmax (ng/mL)

compound: Cc1cc(-n2nc3c(c2-n2ccn(-c4ccc5c(cnn5C)c4F)c2=O)[C@H](C)N(C(=O)c2cc4cc([C@H]5CCOC(C)(C)C5)ccc4n2[C@@]2(c4noc(=O)[nH]4)C[C@@H]2C)CC3)cc(C)c1F [Orforglipron, reference compound]
Cmax / ng/mL: 37.5

P: Cc1cc(-n2nc3c(c2-n2ccn(-c4ccc5c(cnn5C)c4F)c2=O)[C@H](C)N(C(=O)c2cc4cc([C@H]5CCOC(C)(C)C5)ccc4n2[C@@]2(c4noc(=O)[nH]4)[C@@H]4CN(c5ncccn5)C[C@@H]42)CC3)cc(C)c1F
Q: Cc1cc(-n2nc3c(c2-n2ccn(-c4ccc5c(cnn5C)c4F)c2=O)[C@H](C)N(C(=O)c2cc4cc([C@H]5CCOC(C)(C)C5)ccc4n2[C@@]2(c4noc(=O)[nH]4)[C@@H]4CN(c5ccccn5)C[C@@H]42)CC3)cc(C)c1F
Larger number for Cmax: P , or Q ? Kindly state the label of the option you pick.
P
(P: 514 ng/mL, Q: 236 ng/mL)

---

Assay: Pharmacokinetic testing in crab-eating macaques (cynomolgus monkey), IV and PO
Assay type: in vivo
Conditions: cynomolgus monkey, IV, 0.5 mg/kg, plasma
measure: clearance (mL/min/kg)

P: Cc1cc(-n2nc3c(c2-n2ccn(-c4ccc5c(cnn5C)c4F)c2=O)[C@H](C)N(C(=O)c2cc4cc([C@H]5CCOC(C)(C)C5)ccc4n2[C@@]2(c4noc(=O)[nH]4)[C@@H]4CN(c5ccccn5)C[C@@H]42)CC3)cc(C)c1F
Q: Cc1cc(-n2nc3c(c2-n2ccn(-c4ccc5c(cnn5C)c4F)c2=O)[C@H](C)N(C(=O)c2cc4cc([C@H]5CCOC(C)(C)C5)ccc4n2[C@@]2(c4noc(=O)[nH]4)[C@@H]4CN(c5ncccn5)C[C@@H]42)CC3)cc(C)c1F
R: Cc1cc(-n2nc3c(c2-n2ccn(-c4ccc5c(cnn5C)c4F)c2=O)[C@H](C)N(C(=O)c2cc4cc([C@H]5CCOC(C)(C)C5)ccc4n2[C@@]2(c4noc(=O)[nH]4)C[C@@H]2C)CC3)cc(C)c1F [Orforglipron, reference compound]
Sort the items above on clearance, descending. Output spec: labels arranged per the requested ranking.
R, Q, P
(R: 4.6 mL/min/kg, Q: 1.3 mL/min/kg, P: 0.9 mL/min/kg)

---

Assay: Pharmacokinetic testing in crab-eating macaques (cynomolgus monkey), IV and PO
Format: in vivo
Conditions: cynomolgus monkey, PO, 2 mg/kg, plasma
measure: half-life (min)

compound: Cc1cc(-n2nc3c(c2-n2ccn(-c4ccc5c(cnn5C)c4F)c2=O)[C@H](C)N(C(=O)c2cc4cc([C@H]5CCOC(C)(C)C5)ccc4n2[C@@]2(c4noc(=O)[nH]4)[C@@H]4CN(c5ncccn5)C[C@@H]42)CC3)cc(C)c1F [Compound C-12]
unit_abbrev: min
half-life: 354

1: Cc1cc(-n2nc3c(c2-n2ccn(-c4ccc5c(cnn5C)c4F)c2=O)[C@H](C)N(C(=O)c2cc4cc([C@H]5CCOC(C)(C)C5)ccc4n2[C@@]2(c4noc(=O)[nH]4)C[C@@H]2C)CC3)cc(C)c1F [Orforglipron, reference compound]
2: Cc1cc(-n2nc3c(c2-n2ccn(-c4ccc5c(cnn5C)c4F)c2=O)[C@H](C)N(C(=O)c2cc4cc([C@H]5CCOC(C)(C)C5)ccc4n2[C@@]2(c4noc(=O)[nH]4)[C@@H]4CN(c5ccccn5)C[C@@H]42)CC3)cc(C)c1F [Compound C-22]
Thinking about recorded half-life values, which is higher, 1 or 2 ? Write down the label attached to your selection.
2

Reference source: patent US20260285858A1
